Test system: A498 renal
Procedure details: NCI tumour cell line growth inhibition, 48 h; in the data active = GI50 below about 0.43 µM; inactive = the rest
Outcomes: 1 for active, 0 for inactive

>  <Compound>
CCOC(=O)c1c(-c2ccccc2)[n+](=O)c2cc(Cl)c(Cl)cc2n1[O-]

>  <Label value>
0

$$$$
>  <Compound>
O=C(CS(=O)(=O)c1nc2ccccc2nc1-c1ccccc1)Nc1ccc(F)cc1

>  <Label value>
0

$$$$
>  <Compound>
CO[C@H]1C[C@@H]2CC[C@@H](C)[C@@](O)(O2)C(=O)C(=O)N2CCCC[C@H]2C(=O)O[C@H]([C@H](C)C[C@@H]2CC[C@@H](OC(=O)C(C)(CO)CO)[C@H](OC)C2)CC(=O)[C@H](C)/C=C(\C)[C@@H](O)[C@@H](OC)C(=O)[C@H](C)C[C@H](C)\C=C/C=C/C=C/1C

>  <Label value>
1

$$$$
>  <Compound>
COc1ccc2nc3cc(Cl)ccc3c(NCCCNCCO)c2c1

>  <Label value>
1

$$$$
>  <Compound>
O=C(Nc1ccc(Oc2ccc3nc(NC(=O)c4ccco4)[nH]c3c2)cc1)Nc1cc(C(F)(F)F)ccc1F

>  <Label value>
0

$$$$
>  <Compound>
CSC1=NC(=Nc2c(C)cccc2C)C2(CCC(C(C)(C)C)CC2)N1c1ccc(Cl)cc1 (configuration not stated)

>  <Label value>
0

$$$$
>  <Compound>
O=C1NC(=S)S/C1=C\c1cn(-c2ccccc2)nc1-c1ccccc1

>  <Label value>
0

$$$$
>  <Compound>
NC(=O)c1ccc2c(c1)-c1nc-2nc2[n-]c(nc3nc(nc4[n-]c(n1)c1ccc(C(N)=O)cc41)-c1ccc(C(N)=O)cc1-3)c1ccc(C(N)=O)cc21.[Co+2]

>  <Label value>
0

$$$$
>  <Compound>
COc1cc(/C=C/C(=O)c2cccc(-n3cc(-c4cc(OC)c(OC)c(OC)c4)[nH]c3=O)c2)cc(OC)c1OC

>  <Label value>
0

$$$$
>  <Compound>
Oc1ccc(Cl)cc1C(c1cc(Cl)ccc1O)C(Cl)(Cl)Cl

>  <Label value>
0

$$$$
>  <Compound>
NS(=O)(=O)c1ccc(Nc2cc(-c3ccc(O)c(F)c3)[nH]n2)cc1

>  <Label value>
0

$$$$
>  <Compound>
NC(N)=N/N=C/c1c(-c2ccsc2)nc2n1CCS2

>  <Label value>
0

$$$$
>  <Compound>
C[C@@]1([C@H](OC(=O)c2ccccc2)C(N)=O)CO1

>  <Label value>
0

$$$$
>  <Compound>
O=C1NC(=NCc2ccccc2Cl)S/C1=C\c1ccc2ncccc2c1

>  <Label value>
0

$$$$
>  <Compound>
COc1ccc2c(c1)OC(N)=C(C#N)C2c1cc(OC)c(OC)c(OC)c1 (configuration not stated)

>  <Label value>
1

$$$$
>  <Compound>
CN(C)c1ccc(/C=C\c2ccnc3ccccc23)cc1

>  <Label value>
0

$$$$
>  <Compound>
CCN1CCN(c2nc(C)cc(N(CCCNc3ccnc4cc(Cl)ccc34)Cc3ccc4c(c3)OCO4)n2)CC1

>  <Label value>
0

$$$$

* * *

Tested on: TK-10 renal
Procedure details: NCI tumour cell line growth inhibition, 48 h
Reported metric: TGI

>  <Molecule>
C[C@H]1CC[P+](Cc2ccccc2)(c2ccccc2)C1 (stereo partly specified)

>  <Readout value>
> 100 µM

$$$$
>  <Molecule>
Brc1ccc(C2C3CSc4ccccc4C3=NN2c2ccccc2)cc1 (stereo unspecified)

>  <Readout value>
> 100 µM

$$$$
>  <Molecule>
COc1nc(N=P(c2ccccc2)(c2ccccc2)c2ccccc2)cc(=O)n1C

>  <Readout value>
> 100 µM

$$$$
>  <Molecule>
CCOC1=C2N=C(C(CC)c3ccccc3F)N=C2C(=O)c2ccccc21 (stereo unspecified)

>  <Readout value>
> 100 µM

$$$$
>  <Molecule>
N#CCCn1[nH]c(=O)c(Cl)c(Cl)c1=O

>  <Readout value>
68.4 µM

$$$$
>  <Molecule>
CC1(C)CCN2C(=O)C34CCCC3CC21S4 (stereo unspecified)

>  <Readout value>
> 100 µM

$$$$
